B1: Twister Ribozyme (parent)
chain: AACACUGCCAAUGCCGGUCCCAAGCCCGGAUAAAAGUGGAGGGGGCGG

Variants of: B1
Experiment: self-cleavage, relative activity (ratio to wild type); higher = more cleavage; co-transcriptional
Binary call on self-cleavage: TRUE from 0.1 upward, FALSE beneath that.

mutation string	answer label
A33C G45U	TRUE
C14U U37G	TRUE
A1U G29C	FALSE
A4G G7A	TRUE
A4U A35G	FALSE
C8U G29C	TRUE
C9U A32G	TRUE
A10G C14U	TRUE

Test whether the variant G24U G41C records self-cleavage of 0.1 or higher.
FALSE

Can G13U U31C be said to have self-cleavage at or above 0.1?
TRUE

Entry C5G A35U : is its self-cleavage no less than 0.1?
TRUE

Would you say C14A C15G shows self-cleavage at minimum 0.1?
TRUE
